Consider the following molecules; for each one, report its Area of dermoncecrosis, Mean.
- System: P. aeruginosa LESB58
- assay_name: Murine high density subcutaneous skin abscess model
- Assay type: in vivo, Pseudomonas aeruginosa
- condition_info: Colistin, tigecycline and tobramycin groups (shared vehicle, CAZ and CZA mice); female Swiss Webster mice, 50 μL s.c. 1 h after infection, day 3; CAZ or CZA 50, CST 1.25, TGC 2.5, TOB 2 mg/mL; vehicle 0.9% saline
- Experimental: Mice used in this study were female Swiss Webster aged approximately 6-7 weeks and sourced from the University of Otago Biomedical Research Facility. […] Progression of the infection was monitored daily, and abscess dimensions were measured on day three using a calliper. On day three, abscess tissue and pus were excised, homogenized in sterile PBS using SPEX SamplePrep 1600 MiniG for five minutes and bacterial CFU counts determined by serial dilution. […]
Peptide text beside a SMILES is read from it.
Answers are plain numbers, in mm^2.

Sample answers from the record:
NC[C@H]1O[C@H](O[C@H]2[C@H](O)[C@@H](O[C@H]3O[C@H](CO)[C@@H](O)[C@H](N)[C@H]3O)[C@H](N)C[C@@H]2N)[C@H](N)C[C@@H]1O | 55.6
CN(C)c1cc(NC(=O)CNC(C)(C)C)c(O)c2c1C[C@H]1C[C@H]3[C@H](N(C)C)C(O)=C(C(N)=O)C(=O)[C@@]3(O)C(O)=C1C2=O | 86.7
CC[C@H](C)CCCCC(=O)N[C@@H](CCN)C(=O)N[C@H](C(=O)N[C@@H](CCN)C(=O)N[C@H]1CCNC(=O)[C@H]([C@@H](C)O)NC(=O)[C@H](CCN)NC(=O)[C@H](CCN)NC(=O)[C@H](CC(C)C)NC(=O)[C@@H](CC(C)C)NC(=O)[C@H](CCN)NC1=O)[C@@H](C)O [CST, colistin] (HELM PEPTIDE1{[CC[C@H](C)CCCCC(=O)[*:2]].[Dab].T.[Dab].[Dab].[Dab].[dL].L.[Dab].[Dab].T}$PEPTIDE1,PEPTIDE1,5:R3-11:R2$$$V2.0) | 38.6

Kindly review the next molecule as well.
What does the record list as Area of dermoncecrosis, Mean for "CC(C)(O/N=C(\C(=O)N[C@@H]1C(=O)N2C(C(=O)[O-])=C(C[n+]3ccccc3)CS[C@H]12)c1csc(N)n1)C(=O)O" ?
85.3
